test: Stability studies of varenicline crystalline salts (one year storage, HPLC and XRD); format: physicochemical; settings: initial; before storage at room temperature, normal pressure, ambient atmosphere
Structures can show the parent of a compound that is named as a salt.
experimentalReadout: Purity (HPLC) % initial (%)
Answers are plain numbers, in %.

Answered examples (7):
{"columns": ["compound", "experimentalReadout", "recordedMeasurement"],
 "data": [
  ["O=C(O)CCCCC(=O)O.c1cnc2cc3c(cc2n1)C1CNCC3C1.c1cnc2cc3c(cc2n1)C1CNCC3C1 [Example 1, varenicline hemi-adipate]", "Purity (HPLC) % initial", 99.89],
  ["c1cnc2cc3c(cc2n1)[C@@H]1CNC[C@H]3C1 [Hydrochloride, varenicline hydrochloride, reference compound]", "Purity (HPLC) % initial", 99.91],
  ["O=S(=O)(O)CCS(=O)(=O)O.c1cnc2cc3c(cc2n1)C1CNCC3C1.c1cnc2cc3c(cc2n1)C1CNCC3C1 [Example 18, Varenicline Hemi-1,2-Ethane Disulfonate]", "Purity (HPLC) % initial", 99.97],
  ["O=C(O)C(O)c1ccccc1.c1cnc2cc3c(cc2n1)C1CNCC3C1 (racemic) [Example 10, varenicline DL-mandelate]", "Purity (HPLC) % initial", 99.93],
  ["O=C(O)CCCC(=O)O.c1cnc2cc3c(cc2n1)C1CNCC3C1 [Example 3, varenicline glutarate]", "Purity (HPLC) % initial", 98.77],
  ["CC(O)C(=O)O.c1cnc2cc3c(cc2n1)C1CNCC3C1 (racemic) [Example 17, varenicline DL-lactate]", "Purity (HPLC) % initial", 98.98],
  ["O=C(O)CC(=O)O.c1cnc2cc3c(cc2n1)C1CNCC3C1 [Example 9, varenicline malonate]", "Purity (HPLC) % initial", 99.91]
]}

Attention now shifts to the item below.
The reported value for O=C(O)CCC(=O)C(=O)O.c1cnc2cc3c(cc2n1)C1CNCC3C1 [Example 6, varenicline α-ketoglutarate] in terms of Purity (HPLC) % initial is 99.71

Entry source: patent US8440825B2
